Listed below: Kd values for each entry.
Biological target: T1, EsCas13d, nuclease-dead (Eubacterium siraeum, UniProt B0MS50, R295A;H300A;R849A;H854A)
T1 sequence: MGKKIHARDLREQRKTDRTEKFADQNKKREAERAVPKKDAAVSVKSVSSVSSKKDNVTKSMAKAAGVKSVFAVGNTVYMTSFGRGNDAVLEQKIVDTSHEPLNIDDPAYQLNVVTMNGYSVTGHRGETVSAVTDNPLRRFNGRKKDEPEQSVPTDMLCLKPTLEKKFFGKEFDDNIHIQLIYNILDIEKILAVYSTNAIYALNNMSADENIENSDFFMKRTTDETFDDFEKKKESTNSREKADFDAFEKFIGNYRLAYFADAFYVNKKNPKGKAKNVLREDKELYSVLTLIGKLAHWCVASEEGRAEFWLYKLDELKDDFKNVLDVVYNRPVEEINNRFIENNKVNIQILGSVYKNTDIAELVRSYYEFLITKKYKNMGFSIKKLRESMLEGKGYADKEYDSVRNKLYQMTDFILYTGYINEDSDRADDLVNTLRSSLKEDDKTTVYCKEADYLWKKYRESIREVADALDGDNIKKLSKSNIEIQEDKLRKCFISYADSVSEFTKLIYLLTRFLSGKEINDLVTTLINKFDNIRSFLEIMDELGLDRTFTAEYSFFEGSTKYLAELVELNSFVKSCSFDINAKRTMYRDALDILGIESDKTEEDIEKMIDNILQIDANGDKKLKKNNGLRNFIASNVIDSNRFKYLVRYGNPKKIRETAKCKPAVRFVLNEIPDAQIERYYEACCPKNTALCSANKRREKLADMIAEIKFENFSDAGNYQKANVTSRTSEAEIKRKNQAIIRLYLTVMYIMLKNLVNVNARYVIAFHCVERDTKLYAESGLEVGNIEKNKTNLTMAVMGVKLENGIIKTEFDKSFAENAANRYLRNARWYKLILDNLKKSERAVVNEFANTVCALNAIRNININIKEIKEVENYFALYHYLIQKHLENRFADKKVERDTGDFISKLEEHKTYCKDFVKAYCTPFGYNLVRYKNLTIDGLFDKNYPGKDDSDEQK
Experiment: crRNA (strand 1, pre-loaded); Mg2+; 40 mM Tris-HCl pH 7.5, 150 mM NaCl, 6 mM MgCl2, 1 mM DTT, 0.1% Tween-20, 0.2 mg/ml BSA; 25 C; 10 min per concentration, then washed
Details: tags: His6-TwinStrep-SUMO cleaved; N-terminal SNAP kept (SNAP-Surface 488); label: 3' end held by stalled T7 RNA polymerase

binder	endpoint.value
target 1 MT 5'PFS GAG 3'PFS AUC (mixed) RNA 1: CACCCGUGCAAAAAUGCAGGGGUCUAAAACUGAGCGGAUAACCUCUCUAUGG RNA 2: GGGAAUGGAUCCACAUCUACGAAUUCGAGCCAUAGAGAGGUUAUCCGCUCAAUCAGAUCGGAAGAGCACACGU	~60 nM
target 1 A14U,G15C (mixed) RNA 1: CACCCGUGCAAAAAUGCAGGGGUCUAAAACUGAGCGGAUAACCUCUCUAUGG RNA 2: GGGAAUGGAUCCACAUCUACGAAUUCGUACCAUAGACUGGUUAUCCGCUCACCGAGAUCGGAAGAGCACACGU	~80 nM

Now examine the next entry.
Reported Kd for target 3 C1A,C16U (mixed) RNA 1: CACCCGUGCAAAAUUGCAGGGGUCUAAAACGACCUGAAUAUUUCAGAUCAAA RNA 2: GGGAAUGGAUCCACAUCUACGAAUUCGUUUUUGAUUUGAAAUAUUCAGGUAUGCAGAUCGGAAGAGCACACGU : what is it?
~91 nM
